# SUBJECT_OF_TEST: Cytochrome P450 3A4 (Homo sapiens)
# ASSAY_DETAILS: Cytochrome panel assay with activity outcomes; as to activity, negative = inhibition: % is scaled to controls: 0 for no effect and ±100 for the full control effect
# APPLIED_CONDITIONS: recombinant CYP, pro-luciferin dealkylation, luminescence, p450-cyp3a4; series mostly up to 57.1 µM
Screen size: about 16,000 compounds; about 5,100 (32%) were called active. Roughly 25% stayed inconclusive and do not appear here. This is one part of the list.
MEASURED_PROPERTY: activity, negative = inhibition

INSERT INTO assay_data (molecule, measured_property, result) VALUES
  ('CCOC(=O)CSc1nnc(NC(=O)c2cccc(S(=O)(=O)N3CCCCCC3)c2)s1', 'activity, negative = inhibition', '-15.1% [at 2.29 µM] (inactive)'),
  ('CCOC(=O)c1cc2c(C(F)(F)F)cc(-c3ccccc3)nc2o1', 'activity, negative = inhibition', '-1.96% [at 2.29 µM] (inactive)'),
  ('O=C1C[C@@H](O)[C@@H](O)[C@@H]2[C@H]3C(=O)N(c4ccc(F)cc4F)C(=O)[C@@H]3CC[C@H]12', 'activity, negative = inhibition', '-11% [at 11.4 µM] (inactive)'),
  ('C=CCOc1c2ccc(C(=O)NC3CCCc4ccccc43)cc2nn1C (centres undefined)', 'activity, negative = inhibition', '3.25% [at 2.29 µM] (inactive)'),
  ('COCCn1c(C)cc(C2=NNC(=Nc3ccc(F)cc3)SC2)c1C', 'activity, negative = inhibition', '15.3% [at 11.4 µM] (inactive)'),
  ('O=[N+]([O-])c1ccc2c(c1)S(=O)c1ccccc1-2 (centres undefined)', 'activity, negative = inhibition', '-11.3% [at 11.4 µM] (inactive)'),
  ('Cc1ccc(S(=O)(=O)Oc2cc(N)c3c(n2)CCC3)cc1', 'activity, negative = inhibition', '-14.1% [at 11.4 µM] (inactive)'),
  ('CCOC(=O)N1CCN(C(=O)c2ccc(Cl)c(S(=O)(=O)N3CCOCC3)c2)CC1', 'activity, negative = inhibition', '-3.04% [at 2.29 µM] (inactive)'),
  ('COc1ccccc1OCC(=O)NNC(=O)c1cnccn1', 'activity, negative = inhibition', '16% [at 2.29 µM] (inactive)'),
  ('CN(C)CCN1C(=O)C(O)=C(C(=O)c2cc3ccccc3o2)C1c1cccc(Br)c1 (centres undefined)', 'activity, negative = inhibition', '27.7% [at 2.29 µM] (inactive)'),
  ('O=CN[C@@H](Cc1cnc[nH]1)C(=O)O', 'activity, negative = inhibition', '-4.87% [at 11.4 µM] (inactive)'),
  ('CN(C)Cc1c[nH]c2nc[nH]c(=O)c12', 'activity, negative = inhibition', '-2.68% [at 11.4 µM] (inactive)'),
  ('O=C(O)CCC(=O)Nc1ccc2ccccc2c1', 'activity, negative = inhibition', '-3.97% [at 11.4 µM] (inactive)'),
  ('Cc1cc(=Nc2ccc3c(c2)c(N)cc(C)[n+]3C)nc(N)n1C', 'activity, negative = inhibition', '3.03% [at 11.4 µM] (inactive)');

###

# SUBJECT_OF_TEST: Cytochrome P450 3A4 (Homo sapiens) (UniProt P08684)
# Sequence (P08684 whole entry, looked up): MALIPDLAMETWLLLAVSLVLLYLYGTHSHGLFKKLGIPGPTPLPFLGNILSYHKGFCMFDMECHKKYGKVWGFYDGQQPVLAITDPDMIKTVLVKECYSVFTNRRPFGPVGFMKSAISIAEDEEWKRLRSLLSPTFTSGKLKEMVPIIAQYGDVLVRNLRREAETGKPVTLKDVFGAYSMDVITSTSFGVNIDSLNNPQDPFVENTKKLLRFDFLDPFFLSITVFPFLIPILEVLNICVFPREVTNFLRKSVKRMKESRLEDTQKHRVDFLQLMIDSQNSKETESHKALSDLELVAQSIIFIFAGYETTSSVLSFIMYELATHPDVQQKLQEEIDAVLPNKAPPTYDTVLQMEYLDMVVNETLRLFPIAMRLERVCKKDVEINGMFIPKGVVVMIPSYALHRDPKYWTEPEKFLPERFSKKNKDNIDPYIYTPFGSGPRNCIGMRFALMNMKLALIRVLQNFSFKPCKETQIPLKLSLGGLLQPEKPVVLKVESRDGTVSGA
# ASSAY_DETAILS: Cytochrome panel assay with activity outcomes
# APPLIED_CONDITIONS: recombinant CYP, pro-luciferin dealkylation, luminescence, p450-cyp3a4; series mostly up to 57.1 µM
Out of some 16,000 compounds screened, about 5,100 (32%) were called active. About 25% were inconclusive and are not listed. The call rests on the fitted dose curve; in most records, active means well fitted curve in the direction sought with a large enough effect; inconclusive means small, poorly fitted or top-dose-only effect, or effect the other way; inactive means no such curve, though single readings can be large or run the other way. This is one part of the list.
Possible outcomes: active, inactive

INSERT INTO results (test_smiles, label_class) VALUES
  ('O=C1c2ccccc2N[C@H](c2cc(Cl)cc(Cl)c2O)N1CCc1ccccn1', 'active'),
  ('COc1cccc2c1[C@@H]1CN(CCCCn3c(=O)[nH]c4c(sc5ncc(-c6ccccc6)nc54)c3=O)C[C@H]1CO2', 'active'),
  ('FC(F)(F)c1ccccc1-c1ccc2ncnc(NCc3cccnc3)c2c1', 'active'),
  ('c1ccc(-c2n[nH]c(-c3ccccc3)c2-c2nc3ccccc3[nH]2)cc1', 'active'),
  ('CS(=O)(=O)Nc1cccc(-c2ccc3ncnc(N4CCNCC4)c3c2)c1', 'active'),
  ('CS(=O)(=O)Nc1cccc(-c2ccc3ncnc(N4CCOCC4)c3c2)c1', 'active'),
  ('Nc1nnnn1/N=C\c1ccc(Cl)c([N+](=O)[O-])c1', 'inactive'),
  ('CO[C@H]1COC(=O)C/C=C\[C@H](C)[C@@H](OC)COC(=O)[C@H](Cc2ccccc2)NC(=O)C/C=C\[C@@H]1C', 'active'),
  ('CC(C)Oc1ccc(CSC(=N)N)cc1', 'inactive'),
  ('N[C@@H](Cn1cc(F)c(=O)[nH]c1=O)C(=O)O', 'inactive'),
  ('COC(=O)c1cccc(NC(=O)/C=C/c2cccc([N+](=O)[O-])c2)c1', 'active'),
  ('COCCNc1ncnc2ccc(-c3ccccc3C(F)(F)F)cc12', 'active'),
  ('Cc1ccc(C(=O)Nc2ccccc2Oc2ccccc2)cc1[N+](=O)[O-]', 'inactive'),
  ('O=C(/C=C/c1cccc([N+](=O)[O-])c1)NCCN1CCOCC1', 'inactive'),
  ('Nc1cc(Cl)nc(N/N=C/c2ccccc2[N+](=O)[O-])n1', 'active'),
  ('CCCc1cc2c(cc1NC(=O)c1ccccc1Cl)OCO2', 'active');

###

# SUBJECT_OF_TEST: Cytochrome P450 3A4 (Homo sapiens) (UniProt P08684)
# ASSAY_DETAILS: Cytochrome panel assay with activity outcomes
# APPLIED_CONDITIONS: recombinant CYP, pro-luciferin dealkylation, luminescence, p450-cyp3a4; series mostly up to 57.1 µM
Hit rate of the full screen: of about 16,000 compounds, about 5,100 (32%) were called active. Roughly 25% stayed inconclusive and do not appear here. Calls follow the shape of the dose curve; as a rule, active = well fitted curve in the direction sought with a large enough effect; inconclusive = small, poorly fitted or top-dose-only effect, or effect the other way; inactive = no such curve, though single readings can be large or run the other way. The list shows a part of the results.
Possible outcomes: active, inactive

INSERT INTO results (test_smiles, subject_of_test, label_class) VALUES
  ('CSc1nc(Oc2ccc(F)cc2)c2ccccc2n1', 'Cytochrome P450 3A4 (Homo sapiens) (UniProt P08684)', 'inactive'),
  ('C=CCSc1nc(NC)c2sccc2n1', 'Cytochrome P450 3A4 (Homo sapiens) (UniProt P08684)', 'active'),
  ('CN1CCN(S(=O)(=O)c2ccc3[nH]cc(C(=O)O)c(=O)c3c2)CC1', 'Cytochrome P450 3A4 (Homo sapiens) (UniProt P08684)', 'inactive'),
  ('COC(=O)Cc1c(C)nc2nc(NCc3ccccc3OC)[nH]n2c1=O', 'Cytochrome P450 3A4 (Homo sapiens) (UniProt P08684)', 'inactive'),
  ('Cc1cccc2sc(NC(=O)C3c4ccccc4Oc4ccccc43)nc12', 'Cytochrome P450 3A4 (Homo sapiens) (UniProt P08684)', 'active'),
  ('C=CCNc1nc(SCC=C)nc2ccsc12', 'Cytochrome P450 3A4 (Homo sapiens) (UniProt P08684)', 'active'),
  ('CCOC(=O)c1sc(N(Cc2ccccc2)C(=O)CN2C(=O)CN(C)C2=O)nc1C', 'Cytochrome P450 3A4 (Homo sapiens) (UniProt P08684)', 'active');

###

# SUBJECT_OF_TEST: Cytochrome P450 3A4 (Homo sapiens) (UniProt P08684)
# ASSAY_DETAILS: Cytochrome panel assay with activity outcomes; as to activity, negative = inhibition: % is scaled to controls: 0 for no effect and ±100 for the full control effect
# APPLIED_CONDITIONS: recombinant CYP, pro-luciferin dealkylation, luminescence, p450-cyp3a4; series mostly up to 57.1 µM
About 5,100 (32%) of roughly 16,000 compounds were called active. Another 25% or so got no clear call; they are omitted. The list shows a part of the results. Square brackets hold non-standard residues; d marks the D form. Peptide text beside a SMILES is read from it. * marks the point of attachment. ξ: configuration not given here. Cbz = O=C(OCc1ccccc1)*; ξA = CC(N)C(=O)O
# activity, negative = inhibition values compiled below
MEASURED_PROPERTY: activity, negative = inhibition

INSERT INTO measurements (compound, result) VALUES
  ('O=C(CNC(=O)c1ccco1)OCc1c(F)cccc1Cl', '-10.2% [at 2.29 µM] (inactive)'),
  ('COC(=O)CNC(=O)C(C)NC(=O)CNC(=O)OCc1ccccc1 (stereo not drawn) (Cbz-Gly-[ξA]-Gly-OMe)', '-0.615% [at 2.29 µM] (inactive)'),
  ('COCCn1nc2cc(C(=O)NCc3cc(C(F)(F)F)cc(C(F)(F)F)c3)ccc2c1OC', '10.6% [at 2.29 µM] (inactive)'),
  ('CCCCN1C(=O)C(NC(=O)C2CC2)(C(F)(F)F)C2=C1CC(C)(C)CC2=O (stereo unspecified)', '5.27% [at 2.29 µM] (inactive)'),
  ('O=C(CN1C(=O)c2ccccc2C1=O)NC1(C(=O)O)CCCC1', '-10.2% [at 11.4 µM] (inactive)'),
  ('CC(C)(CO[C@H]1C[C@H]2CC[C@@]1(C)C2(C)C)[N+](=O)[O-]', '-5.92% [at 11.4 µM] (inactive)'),
  ('COc1cccc(NC(=S)NNC(=O)C(C)n2nc(C)c([N+](=O)[O-])c2C)c1 (stereo unspecified)', '-29.4% [at 2.29 µM] (inactive)'),
  ('CCOC(=O)c1c(C)c(C)n2c1NC(=O)C2', '-20.8% [at 11.4 µM] (inactive)'),
  ('C[C@@H](N1CCOCC1)[C@@](O)(c1ccccc1)c1ccccn1', '-13% [at 11.4 µM] (inactive)'),
  ('Cc1ccc(Sc2c([N+](=O)[O-])ncn2C)cc1', '11.7% [at 2.29 µM] (inactive)'),
  ('C[N+]1(NCC[N@@+]2(C)CCc3ccccc3C2)CCCCC1', '0.246% [at 11.4 µM] (inactive)'),
  ('[O-][N+]1(CC[N+]2([O-])CCCCC2)CCCCC1', '-11.4% [at 11.4 µM] (inactive)'),
  ('CCCCN1C(=O)C(NC(=O)CC(C)C)(C(F)(F)F)C2=C1CC(C)(C)CC2=O (stereo unspecified)', '-16% [at 2.29 µM] (inactive)'),
  ('CC(C)c1ccc(CNc2cc(N3CCCC3)ccc2[N+](=O)[O-])cc1', '-8.24% [at 2.29 µM] (inactive)'),
  ('COC(=O)C/C=C\[C@@H](C)[C@@H](/C=N\O[C@@H](C)c1cn([C@H]2COC[C@H]2O)nn1)OC', '-29.8% [at 11.4 µM] (inactive)'),
  ('CC(C)(C)CNCCO', '-3.67% [at 11.4 µM] (inactive)');
